Data credit: patent US20220411419A1

- assay notes: in vitro
- test settings: human, uninfected SupT1 cells
# CC50 values compiled below

# compound, CC50
measured = [
    ("CCN(C(=O)COc1cccc2c1OC(C)(C)C2)c1nc2c(s1)CCCC2 [Compound 54]", "> 125 µM"),
    ("COc1ccccc1OCC(=O)Nc1nc(C)c(C)s1 [Compound 186]", "> 100 µM"),
    ("CC1(C)Cc2cc(C(F)(F)F)cc(OCC(=O)Nc3nc4c(s3)CCCC4)c2O1 [Compound 173]", "> 125 µM"),
    ("CC1(C)Cc2cccc(OCC(=O)Nc3nccc(C(F)(F)F)n3)c2O1 [Compound 28]", "> 100 µM"),
    ("Cc1ccc(NC(=O)COc2cccc3c2OC(C)(C)C3)cn1 [Compound 11]", "> 100 µM"),
]

----------
# CC50 at 48 h values compiled below
- assay notes: in vitro
- test settings: human, uninfected SupT1 cells
readout type: CC50 at 48 h

# query smiles, measured result
records = [
    ("Cc1csc(NC(=O)COc2ccccc2OC(C)C)n1", "> 125 µM"),
    ("CCN(C(=O)COc1cccc2c1OC(C)(C)C2)c1nc2c(s1)CCCC2", "> 125 µM"),
    ("CC1(C)Cc2cccc(OC(C)(C)C(=O)Nc3nc4ccccc4s3)c2O1", "> 90 µM"),
    ("CCc1ccc(NC(=O)COc2cccc3c2OC(C)(C)C3)nc1", "> 125 µM"),
    ("Cc1cccc(OCC(=O)N(C)c2nc3c(s2)CCCC3)c1C", "> 125 µM"),
    ("O=C(COc1cccc2c1CCN2)Nc1nc2c(s1)CCCC2", "> 125 µM"),
    ("COc1cccc(C)c1OCC(=O)N(C)c1nc2c(s1)CCCC2", "> 125 µM"),
    ("CC1(C)Cc2cccc(OCC(=O)Nc3nc4c(F)c(F)c(F)cc4s3)c2O1", "> 100 µM"),
    ("CCc1ccc(N(C)C(=O)COc2cccc3c2OC(C)(C)C3)nc1", "> 125 µM"),
]

----------
- Test system: downmodulation of MHC-I molecules expressed on the surface of HIV infected SupT1 cells
- assay notes: cells
- test settings: Human immunodeficiency virus 1, SUP-T1, read-out: EC50 for inhibition of MHC-I downmodulation utilizing the R1 parameter
pEC50: −log10 of the molar value.
readout type: pEC50

# molecule, readout type, bound type, measured result
rows = [
    ("COc1ccccc1OCC(=O)Nc1nc2cc(C)c(C)cc2s1 [Compound 191]", "pEC50", "<", 4.60),
    ("Cc1nc(NC(=O)C(C)(C)Oc2cccc3c2OC(C)(C)C3)sc1C [Compound 19]", "pEC50", "<", 4.52),
    ("CC1(C)Cc2cccc(OCC(=O)Nc3nc(C(=O)N4CCCCC4)cs3)c2O1 [Compound 151]", "pEC50", "<", 4.60),
    ("CCc1ccc(NC(=O)COc2cccc3c2OC(C)(C)C3)nn1 [Compound 85]", "pEC50", "=", 6.42),
    ("COc1ccccc1OCC(=O)Nc1nc2c(F)cccc2s1 [Compound 192]", "pEC50", "=", 5.74),
]

----------
- assay notes: in vitro
- test settings: human, uninfected SupT1 cells

# compound, CC50 at 48 h
data = [
    ("O=C(COc1cccc2[nH]ccc12)Nc1nc2c(s1)CCCC2 [Compound 132]", "> 125 µM"),
    ("Cc1ccccc1OCC(=O)N(C)c1nc2c(s1)CCCC2 [Compound 125]", "> 125 µM"),
    ("COc1ccccc1N(C(=O)COc1cccc2c1OC(C)(C)C2)c1nc(C)cs1 [Compound 55]", "> 125 µM"),
]
